Give cAMP production, hGLP-1R EC50 (pM) for every item shown.
molecular target: human GLP-1 receptor (human, UniProt P43220); experiment: cell-based or functional assay
Starred links: 1 amine or outer side, 2 acyl side, 3 side chain; linkers in the order of their positions; H or OH if unused. Non-standard residues stand in square brackets, D forms with d. Groups on a side chain read outwards from the residue. Primed or numbered codes have the meaning given here. No end group written: not given here. *: point of attachment. Dip = N[C@H](C(=O)O)C(c1ccccc1)c1ccccc1; γGlu = O=C(O)[C@H](CCC(=O)[*:2])N[*:1]; Stearoyl = CCCCCCCCCCCCCCCCCC(=O)*; Palmitoyl = CCCCCCCCCCCCCCCC(=O)*; αMeF = C[C@](N)(Cc1ccccc1)C(=O)O; Myristoyl = CCCCCCCCCCCCCC(=O)*; (PEG)2 = polyethylene glycol 2; PEG2′ = polyethylene glycol 2; PEG4′ = polyethylene glycol; αMeS = C[C@](N)(CO)C(=O)O; Aib = CC(C)(N)C(=O)O
Report the figure in pM without appending any unit label.

Supply reported cAMP production, hGLP-1R EC50 (pM) belonging to this binder: HSQGS[αMeF]TSDVSK[Dip]LDSK([γGlu-γGlu-(PEG)2-(PEG)2-Stearoyl])AAQD[αMeF]VE[Aib]IINT-NH2 [Peptide 59]
6.18

Supply reported cAMP production, hGLP-1R EC50 (pM) belonging to this binder: H[αMeS]QGS[αMeF]TSDVSKILDSK([PEG2′-PEG2′-γGlu-Stearoyl])AAQD[αMeF]VQ[Aib]IINT-NH2 [Peptide 133]
1.06

Supply reported cAMP production, hGLP-1R EC50 (pM) belonging to this binder: H[αMeS]QGS[αMeF]TSDVSKILDSK([PEG2′-PEG2′-γGlu-γGlu-Myristoyl])AAQD[αMeF]VQ[Aib]IINT-NH2 [Peptide 132]
0.949

Supply reported cAMP production, hGLP-1R EC50 (pM) belonging to this binder: H[Aib]QGS[αMeF]TSDVSK[αMeF]LDSK([PEG4′-γGlu-γGlu-Palmitoyl])AAQD[αMeF]VE[Aib]LEAGG-NH2 [Peptide 72]
3.42

Supply reported cAMP production, hGLP-1R EC50 (pM) belonging to this binder: HSQGS[αMeF]TSDVSK[αMeF]LDSKAAQD[αMeF]VQ[Aib]LEAGG-NH2 (not fully specified (residue 17)) [Peptide 80]
1.03
